We begin with a simple list: items and their reported pKi.
Biological target: human α2C (Homo sapiens, UniProt P18825)
Construct: expressed in transfected cells; host or cells: CHO cells (CHO-C4)
Sequence (P18825 whole entry): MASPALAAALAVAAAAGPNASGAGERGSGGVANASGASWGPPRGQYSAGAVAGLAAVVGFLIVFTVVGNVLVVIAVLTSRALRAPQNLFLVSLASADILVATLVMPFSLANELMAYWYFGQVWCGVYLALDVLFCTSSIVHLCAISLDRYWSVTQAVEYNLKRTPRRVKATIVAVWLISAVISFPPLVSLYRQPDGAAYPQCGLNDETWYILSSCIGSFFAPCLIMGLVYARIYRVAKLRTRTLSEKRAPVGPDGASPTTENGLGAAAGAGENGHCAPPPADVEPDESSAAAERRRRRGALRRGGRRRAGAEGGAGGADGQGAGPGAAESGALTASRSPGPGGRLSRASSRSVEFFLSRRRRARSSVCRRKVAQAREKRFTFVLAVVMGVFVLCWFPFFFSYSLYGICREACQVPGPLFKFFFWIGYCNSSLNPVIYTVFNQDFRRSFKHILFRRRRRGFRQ
Experiment: Receptor binding, [3H]rauwolscine, CHO-C4 cells expressing human α2C
Conditions: CHO-C4, 22° C., 30 min
Answer as the number alone; pKi is minus log10 of concentration in mol/L.

Here is how some compounds turned out for pKi.
Cc1ccccc1NC1=NCCN1; 7.15
Cc1c(NC2=NCCN2)ccc2c1NCCO2; 8.05
COc1ccc(NC2=NCCN2)c(C)c1OC; 7.03
Cc1c(NC2=NCCN2)ccc2c1OCCO2; 8.46

Q: Can you look up pKi on human α2C (Homo sapiens, UniProt P18825) for Cc1c(O)cccc1Nc1ncc[nH]1 ?
Result: 6.34

Q: Now consider Cc1c(Nc2ncc[nH]2)ccc2nccnc12 and answer again.
Result: 6.67

----------
Target: α1
Assay: Receptor binding, [3H]prazosin, human cerebral cortex membranes (HCC)
Conditions: 22° C., 30 min
readout name: Ki
Please answer using the number first and the unit second.

Q: Suppose we examine the compound Cc1ccccc1NC1=NCCN1 [Example 1] ; what Ki value has been reported?
Result: 5.03 µM

----------
We begin with a simple list: items and their reported pKi.
Target: I2A
Experiment: Receptor binding, I2A
Answer as the number alone; pKi is minus log10 of concentration in mol/L.

Here is how some compounds turned out for pKi.
c1cc2c(cc1NC1=NCCN1)OCCO2; 5.96
CC1CNc2c(ccc(NC3=NCCN3)c2Br)N1 (stereo not drawn); 4.61
Brc1c(NC2=NCCN2)ccc2nccnc12; 5.14
O=C1COc2ccc(NC3=NCCN3)cc2N1; 5.35
Nc1cc(Cl)c(NC2=NCCN2)c(Cl)c1; 4.19

Q: Suppose we examine the compound Cc1c(NC2=NCCN2)ccc2c1OCCO2 ; what pKi value has been reported?
Result: 4.00

----------
Molecular target: human α2A (Homo sapiens)
Sequence (P08913 1-465): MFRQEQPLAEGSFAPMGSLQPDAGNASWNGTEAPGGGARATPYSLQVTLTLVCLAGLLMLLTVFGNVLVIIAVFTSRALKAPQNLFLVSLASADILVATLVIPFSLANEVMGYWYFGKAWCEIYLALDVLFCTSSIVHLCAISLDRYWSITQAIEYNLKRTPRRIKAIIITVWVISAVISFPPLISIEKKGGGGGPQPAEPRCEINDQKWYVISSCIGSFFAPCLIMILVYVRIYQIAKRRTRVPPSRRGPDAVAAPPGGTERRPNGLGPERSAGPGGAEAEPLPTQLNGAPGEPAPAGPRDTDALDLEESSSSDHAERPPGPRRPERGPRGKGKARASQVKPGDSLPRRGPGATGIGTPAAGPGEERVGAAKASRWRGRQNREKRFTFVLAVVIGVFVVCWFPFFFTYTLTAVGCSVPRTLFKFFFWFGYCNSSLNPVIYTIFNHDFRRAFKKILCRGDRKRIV
// assign Fulfilled if Ki falls strictly below 9 nM, else Not fulfilled (ties count as Not fulfilled)

Completed entries (count: 5):
Nc1cc(Cl)c(NC2=NCCN2)c(Cl)c1; Fulfilled
Cc1c(NC2=NCCN2)ccc2c1NCCN2; Not fulfilled
Cc1c(O)cccc1Nc1ncc[nH]1; Not fulfilled
Cc1c(NC2=NCCN2)ccc2c1OCCO2; Fulfilled
COc1ccc(NC2=NCCN2)c(C)c1OC; Fulfilled

Note: attention shifts to another entry.
Q: Please state whether Ki is below 9 nM for O=C1COc2ccc(NC3=NCCN3)cc2N1
Result: Not fulfilled

----------
Biological target: rat α2B (Rattus norvegicus, UniProt P19328)
Construct: expressed in transfected cells; host or cells: CHO cells (CHO-RNG)
Sequence (P19328 whole entry): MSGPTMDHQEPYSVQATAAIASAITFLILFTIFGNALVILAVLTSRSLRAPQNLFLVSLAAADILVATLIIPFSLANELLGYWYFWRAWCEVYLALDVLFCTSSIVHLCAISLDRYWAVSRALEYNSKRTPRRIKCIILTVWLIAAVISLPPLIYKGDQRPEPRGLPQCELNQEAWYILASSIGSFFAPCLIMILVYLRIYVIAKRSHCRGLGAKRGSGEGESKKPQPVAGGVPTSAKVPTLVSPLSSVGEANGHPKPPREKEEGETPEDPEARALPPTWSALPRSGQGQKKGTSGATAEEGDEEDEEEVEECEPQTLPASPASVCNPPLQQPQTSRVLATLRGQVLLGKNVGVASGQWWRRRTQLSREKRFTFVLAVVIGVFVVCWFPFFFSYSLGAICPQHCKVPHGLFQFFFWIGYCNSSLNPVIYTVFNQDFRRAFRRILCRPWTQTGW
Experiment: Receptor binding, [3H]rauwolscine, CHO-RNG cells expressing rat α2B
readout name: Ki (nM)
Answer format: numeric, nM implied, no suffix.

Cc1c(NC2=NCCN2)ccc2c1OCCO2; 4

Q: Suppose we examine the molecule c1cc2c(cc1NC1=NCCN1)OCCO2 ; what Ki value has been reported?
Result: 28

Q: Now consider Cc1ccccc1NC1=NCCN1 and answer again.
Result: 49

----------
We begin with a simple list: items and their reported log10 Ki.
Biological target: rat α2B (Rattus norvegicus, UniProt P19328)
Construct: expressed in transfected cells; host or cells: CHO cells (CHO-RNG)
Test: Receptor binding, [3H]rauwolscine, CHO-RNG cells expressing rat α2B
Conditions: [3H]rauwolscine, CHO-RNG, 22° C., 30 min; read-out: Ki α2B
Please be aware that the numbers have been log10-transformed from Ki in nM.

Here is how some compounds turned out for log10 Ki.
COc1ccc(NC2=NCCN2)c(C)c1OC; 2.29
COc1c(C(C)(C)C)cc(C)c(Nc2ncc[nH]2)c1C; 2.34
Brc1c(NC2=NCCN2)ccc2c1NCCN2; 1.67

Q: Suppose we examine the compound c1cc2c(cc1NC1=NCCN1)NCCN2 ; what log10 Ki value has been reported?
Result: 2.42

Q: Now consider Cc1cccc(Nc2ncc[nH]2)c1C and answer again.
Result: 2.47

Q: Now consider O=C1COc2ccc(NC3=NCCN3)cc2N1 and answer again.
Result: 2.93

Q: Now consider Cc1c(O)cccc1Nc1ncc[nH]1 and answer again.
Result: 2.95

Q: Now consider Cc1c(NC2=NCCN2)ccc2c1NC(=O)CO2 and answer again.
Result: 2.38

Q: Now consider Cc1c(NC2=NCCN2)ccc2c1NCCO2 and answer again.
Result: 1.48

Q: Now consider Nc1cc(Cl)c(NC2=NCCN2)c(Cl)c1 and answer again.
Result: 0.68

Q: Now consider CC1CNc2c(ccc(NC3=NCCN3)c2Br)N1 (stereo not drawn) and answer again.
Result: 2.29

Q: Now consider Cc1c(NC2=NCCN2)ccc2c1NCCN2 and answer again.
Result: 2.14

----------
Target: I2A
Experiment: Receptor binding, I2A
We begin with a simple list: items and their reported Ki.

Here is how some compounds turned out for Ki.
Cc1cc(C(C)(C)C)c(O)c(C)c1CC1=NCCN1 [Example 23]; 12.9 µM
Cc1cccc(Nc2ncc[nH]2)c1C [Example 18]; 0.141 µM
c1cc2c(cc1NC1=NCCN1)NCCN2 [Example 7]; 100 µM
Cc1c(Nc2ncc[nH]2)ccc2c1OCCO2 [Example 21]; 7.71 µM
COc1ccc(NC2=NCCN2)c(C)c1OC [Example 12]; 100 µM

Now look at this one.
Q: Suppose we examine the compound COc1nc(C)nc(Cl)c1NC1=NCCN1 [Example 6] ; what Ki value has been reported?
Result: 100 µM

----------
Biological target: I2B
Assay: Receptor binding, I2B
readout name: pKi
Answer as the number alone; pKi is minus log10 of concentration in mol/L.

Here is how some molecules turned out for pKi.
Cc1c(NC2=NCCN2)ccc2c1NCCO2 [Example 16]; 4.92
Cc1cccc(Nc2ncc[nH]2)c1C [Example 18]; 7.89
Cc1c(Nc2ncc[nH]2)ccc2nccnc12 [Example 24]; 7.44
Cc1cc(C(C)(C)C)c(O)c(C)c1CC1=NCCN1 [Example 23]; 5.57
COc1ccc(NC2=NCCN2)c(C)c1OC [Example 12]; 6.29

Q: Suppose we examine the molecule COc1ccc(Nc2ncc[nH]2)c(C)c1 [Example 19] ; what pKi value has been reported?
Result: 6.75

Q: Now consider c1cc2c(cc1NC1=NCCN1)OCCO2 [Example 11] and answer again.
Result: 5.69

Q: Now consider Cc1c(NC2=NCCN2)ccc2c1NCCN2 [Example 8] and answer again.
Result: 5.00

Q: Now consider O=C1COc2ccc(NC3=NCCN3)cc2N1 [Example 14] and answer again.
Result: 5.19

Q: Now consider COc1nc(C)nc(Cl)c1NC1=NCCN1 [Example 6] and answer again.
Result: 4.00

Q: Now consider Cc1c(Nc2ncc[nH]2)ccc2c1NCCO2 [Example 17] and answer again.
Result: 5.03

Q: Now consider COc1c(C(C)(C)C)cc(C)c(Nc2ncc[nH]2)c1C [Example 22] and answer again.
Result: 6.06

Q: Now consider Cc1c(NC2=NCCN2)ccc2c1OCCO2 [Example 13] and answer again.
Result: 5.91

Q: Now consider Nc1cc(Cl)c(NC2=NCCN2)c(Cl)c1 [Example 3] and answer again.
Result: 4.41

Q: Now consider Cc1c(Nc2ncc[nH]2)ccc2c1OCCO2 [Example 21] and answer again.
Result: 6.16

----------
Molecular target: I1 imidazoline receptor
Assay: I1 imidazoline receptor binding assay, 3H-clonidine, bovine VLM membranes
Settings: 25° C., 50 min
pKi: −log10 of the molar value.
Note to self: values exactly at 6 are Fulfilled. So pKi at or above 6 is Fulfilled, below is Not fulfilled.

Completed entries (count: 10):
CC1CNc2c(ccc(NC3=NCCN3)c2Br)N1 (stereo not drawn); Not fulfilled
Cc1c(O)cccc1Nc1ncc[nH]1; Fulfilled
Clc1cccc(Cl)c1NC1=NCCN1; Fulfilled
Cc1c(Nc2ncc[nH]2)ccc2c1OCCO2; Fulfilled
Cc1c(Nc2ncc[nH]2)ccc2c1NCCO2; Not fulfilled
Cc1ccccc1NC1=NCCN1; Fulfilled
COc1ccc(Nc2ncc[nH]2)c(C)c1; Fulfilled
Brc1c(NC2=NCCN2)ccc2nccnc12; Fulfilled
COc1nc(C)nc(Cl)c1NC1=NCCN1; Fulfilled
Nc1cc(Cl)c(NC2=NCCN2)c(Cl)c1; Fulfilled

Note: attention shifts to another entry.
Q: Test whether the molecule Cc1c(NC2=NCCN2)ccc2c1NCCN2 records pKi of 6 or higher.
Result: Not fulfilled
